Assay: Elimination rate constant at 50 mg/kg upon subcutaneous administration was determined in mouse; n = 5
Format: ADME, organism-based
Set-up: dose 50 mg/kg, route subcutaneous
Settings: in vivo, sc
property label: Kel (h⁻¹)
Answers are plain numbers, in h⁻¹.

Reported Kel of C[C@]12CC[C@H](O)CC1=CCC1C2CC[C@]2(C)C(n3cnc4ccccc43)=CCC12 (stereo partly specified) : 0.942

* * *

Test: Area under curve at 100 mg/kg upon subcutaneous administration was determined in mouse; n = 5
Format: ADME, organism-based
Parameters: dose 100 mg/kg, route subcutaneous
Conditions: in vivo, sc
property label: AUC (ng·h/mL)
Answers are plain numbers, in ng·h/mL.

The value of AUC measured for the compound C[C@]12CC[C@H](O)CC1=CCC1C2CC[C@]2(C)C(n3cnc4ccccc43)=CCC12 (stereo partly specified) turned out to be 30200
